Measured pIC50, listed per entry for reference.
Biological target: DPP4 (Homo sapiens)
Sequence (P27487 whole entry): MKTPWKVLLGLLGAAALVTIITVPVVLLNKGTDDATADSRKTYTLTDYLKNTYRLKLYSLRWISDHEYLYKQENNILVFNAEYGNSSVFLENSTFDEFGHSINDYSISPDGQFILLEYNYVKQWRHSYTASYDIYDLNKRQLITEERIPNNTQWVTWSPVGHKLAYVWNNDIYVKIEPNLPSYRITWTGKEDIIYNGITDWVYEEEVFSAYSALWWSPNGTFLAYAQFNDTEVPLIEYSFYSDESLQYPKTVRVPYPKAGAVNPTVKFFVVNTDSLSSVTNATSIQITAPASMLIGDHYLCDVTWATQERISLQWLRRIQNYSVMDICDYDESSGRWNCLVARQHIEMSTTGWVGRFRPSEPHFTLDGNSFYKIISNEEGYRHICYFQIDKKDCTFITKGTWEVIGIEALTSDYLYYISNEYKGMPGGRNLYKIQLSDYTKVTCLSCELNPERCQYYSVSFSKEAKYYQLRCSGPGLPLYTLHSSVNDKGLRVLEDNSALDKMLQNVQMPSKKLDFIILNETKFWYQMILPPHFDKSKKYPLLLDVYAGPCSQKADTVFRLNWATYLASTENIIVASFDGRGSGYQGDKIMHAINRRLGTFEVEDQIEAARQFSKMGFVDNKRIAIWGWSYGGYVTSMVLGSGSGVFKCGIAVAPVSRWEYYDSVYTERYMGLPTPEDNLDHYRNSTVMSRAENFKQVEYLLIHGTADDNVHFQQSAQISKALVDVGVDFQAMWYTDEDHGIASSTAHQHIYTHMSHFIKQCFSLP
Assay: DPP4 inhibition, fluorogenic substrate H-Gly-Pro-AMC
Format: biochemical
Set-up: purchased R&D Systems
Details: 25° C., H-Gly-Pro-AMC substrate
pIC50: −log10 of the molar value.

Worked examples, 5 molecules total:
Problem: Query pIC50 for COc1ccc(NC2CCN(CC(=O)N3CCC[C@H]3C#N)CC2)c2cccnc12
Solution: < 5.00

Problem: Supply pIC50 value. Item: N#C[C@@H]1CCCN1C(=O)CN1CC[C@H](Nc2cccc3sccc23)C1
Solution: < 6.00

Problem: # return recorded pIC50 for entry N#C[C@@H]1CCCN1C(=O)CN1CC[C@H](Oc2ccnc3c(C(F)(F)F)cccc23)C1
Solution: < 6.00

Problem: Provide one value: measured pIC50 of N#C[C@@H]1CCCN1C(=O)CN1CC[C@H](NC(=O)c2cc3ccccc3s2)C1
Solution: < 6.00

Problem: Report pIC50, nothing else, for this molecule: COc1cc(NC2CCN(CC(=O)N3C[C@@H](F)C[C@H]3C#N)CC2)c2cccnc2c1
Solution: 5.22

Further cases:
Problem: Write down pIC50 measured for item N#C[C@@H]1CCCN1C(=O)CN1CC[C@H](Oc2cccc3cccnc23)C1
Solution: < 6.00

Problem: Dear colleague, please send me the reported pIC50 for COc1cc(NC2CCN(CC(=O)N3CCC[C@H]3C#N)CC2)c2cccnc2c1 when you can.
Solution: < 5.00

Problem: Identify the reported pIC50 for the following entry. Cc1ccc2ncccc2c1NC1CCN(CC(=O)N2C[C@@H](F)C[C@H]2C#N)CC1
Solution: 5.10
